- Type: cell-based, Escherichia coli
OBSERVATION TYPE: Chromogenic reaction of degrading herbicides in bacteria: MCPA

>  <MOLECULE>
QYD73: AAD-like enzyme, SEQ ID NO. 145 (protein, Synthetic polypeptide, QYD73, D73) MARTFDVQPLDATFGAVISGVKLAALDDETWRELYATWLQYALLVFPGQHLSRDQQIAFARRFGPLEFEIIALSNVKSDGTIRSEVENDDVIKVLKGNMGWHADSTYMPVQAKGAVFTAEVVPSVGGQTGWADMRAAYDALDGATRQKVEQLSAYHSLHYSQSKLGHQHKPGSAYSGYGFHDGPVPLRPLVKTHPETGRKSLLIGRHAHNIPGMDKDESARFLEDLVASACQPPRIYHHTWAAGDAVVWDNRCLLHQATPWDMTQPRVMWHSRIAGDPLSEAALG

>  <RESULT VALUE>
Yes

$$$$
>  <MOLECULE>
QYD53: AAD-like enzyme, SEQ ID NO. 105 (protein, Synthetic polypeptide, QYD53, D53) MASTLSLQPLEGITFGAVATGFRIAELDEPTWQALHDAWLDHALLIFPGQFLTRDEQIAFARRFGPLEFEMAAISNVKPDGTLRLEKDNDDMMKVLKGNMGWHADSTYMPVQAKGAVFSAEVVPTIGGETGWADMRAAYEALDAATREKIDGLSAFHSLHYSQSKLGHQTQKSDGQYNGYGLHDGPVPLRPLVKTHPETGRKSLLIGRHAHNIPGMDKAESERFLDGLIAFACQPPRVYHHHWAPGDVVVWDNRCLLHQATPWDMTQPRVMWHSRIAGDPASEAGLAA

>  <RESULT VALUE>
Yes

$$$$
